experiment: Ratio of drug level in liver to plasma in C57BL/6 mouse at 10 mg/kg, po after 6 hrs; format: ADME, organism-based, C57BL6; set-up: dose 10 mg/kg, route oral
outcomeMeasure: Kp at 6 h

{"compoundStructure": "OCc1nc(-c2cnc(N3CCC(Oc4ccccc4C(F)(F)F)CC3)s2)no1", "outcomeMeasure": "Kp at 6 h", "val": 6}

* * *

test: Drug level in C57BL/6 mouse blood at 0.3 mg/ kg, po after 3 hrs; format: ADME, organism-based, C57BL6; parameters: dose 0.3 mg/ kg, route oral; conditions: read-out: Drug uptake

{"compoundStructure": "OCc1nc(-c2cnc(N3CCC(Oc4ccccc4C(F)(F)F)CC3)s2)no1", "concentration at 3 h": "< 25 nM"}
